# assay_target: CD3 (antigen of the binding affinity table of Example 1) (UniProt P07766)
# method_summary: kinetic fit with two-state parameters; method not given
Please note: koff exactly at 0.2 s⁻¹ is false. Only values below 0.2 s⁻¹ get true.

Examples with answers:
| binder | category |
| --- | --- |
| H4L6 (antibody, V domains shown) VH: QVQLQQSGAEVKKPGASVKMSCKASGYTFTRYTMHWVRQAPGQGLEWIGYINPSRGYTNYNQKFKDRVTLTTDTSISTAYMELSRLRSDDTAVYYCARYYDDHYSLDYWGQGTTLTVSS VL: DIQMTQSPSSLSASVGDRVTITCSASSSVSYMNWYQQKPGKAPKLWIYDTSKLASGVPSRFSGSGSGTDYTLTISSLQPEDFATYYCQQWSSNPFTFGSGTKLEINR | false |
| H2L4 (antibody, V domains shown) VH: QVQLQQSGAEVAKPGASVKVSCKASGYTFTRYTMHWVRQAPGQGLEWMGYINPSRGYTNYNQKFKDRATLTRDKSISTAYMELSRLRSDDTAVYYCARYYDDHYSLDYWGQGTTLTVSS VL: DIQLTQSPSSLSASVGDRVTITCSASSSVSYMNWYQQKPGKAPKLLIYDTSKLASGVPSRFSGSGSGTDFTLTISSMQPEDFATYYCQQWSSNPFTFGSGTKLEINR | true |
| H4L3 (antibody, V domains shown) VH: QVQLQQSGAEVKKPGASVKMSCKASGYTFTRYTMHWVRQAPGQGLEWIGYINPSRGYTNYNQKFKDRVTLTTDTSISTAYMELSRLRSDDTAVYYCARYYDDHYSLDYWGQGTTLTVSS VL: DIQLTQSPSSLSASVGDRVTITCSASSSVSYMNWYQQKPGKAPKLLIYDTSKLASGVPSRFSGSGSGTDYTLTISSLQPEDFATYYCQQWSSNPFTFGSGTKLEINR | false |
| H2L3 (antibody, V domains shown) VH: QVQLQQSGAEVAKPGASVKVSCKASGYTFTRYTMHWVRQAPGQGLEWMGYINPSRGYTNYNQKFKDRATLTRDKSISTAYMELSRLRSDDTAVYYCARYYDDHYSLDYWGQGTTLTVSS VL: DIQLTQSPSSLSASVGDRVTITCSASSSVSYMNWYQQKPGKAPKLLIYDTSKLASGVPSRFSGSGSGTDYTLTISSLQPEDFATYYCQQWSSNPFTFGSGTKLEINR | true |
| H2L6 (antibody, V domains shown) VH: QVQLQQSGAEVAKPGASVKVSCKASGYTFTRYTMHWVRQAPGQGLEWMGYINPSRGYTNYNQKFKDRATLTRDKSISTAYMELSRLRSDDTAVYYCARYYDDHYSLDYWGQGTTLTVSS VL: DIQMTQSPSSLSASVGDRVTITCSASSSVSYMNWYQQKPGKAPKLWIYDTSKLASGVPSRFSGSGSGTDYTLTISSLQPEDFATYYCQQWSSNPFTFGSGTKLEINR | true |

Ask | Consider the binder H4L2 (antibody, V domains shown) VH: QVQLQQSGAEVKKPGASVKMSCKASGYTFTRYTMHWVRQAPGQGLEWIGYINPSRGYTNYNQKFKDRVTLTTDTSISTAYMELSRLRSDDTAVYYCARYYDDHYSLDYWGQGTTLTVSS VL: DIQMTQSPSSLSASVGDRVTMTCSASSSVSYMNWYQQKPGKAPKLLIYDTSKLASGVPSRFSGSGSGTDFTLTISSMQPEDFATYYCQQWSSNPFTFGSGTKLEINR . Is its koff strictly less than 0.2 s⁻¹?
Reply | false
